Test system: PC-3
Test: NCI tumour cell line growth inhibition, 48 h
Active and inactive are the calls of the source. Cut-off read from the data, not from the text of the source: active = GI50 up to about 1.1 µM and inactive = higher.
Can you tell me GI50 for the items I'm about to list?

> print(dat)
                               compound              result
1  O=C1c2ccccc2C(=O)c2c1sc1nc3ccccc3n21  2.64 µM (inactive)

Your task in this section: give GI50 for each listed record.
1. O=c1cnnc2sc(=S)[nH]n12
2. COc1ccc2nc3cc(Cl)ccc3c(NCCNCCCNC(=O)c3cc(-c4ccccc4)nc4ccccc34)c2c1
3. Cc1cc(C)c(S(=O)(=O)N(CCCCCCN)OCCCN)c(C)c1
4. O=[N+]([O-])c1cccc(/N=N/c2c(O)c(S(=O)(=O)O)cc3cc(S(=O)(=O)O)ccc23)c1
5. CC12CCC([C@H](C(O)C3CCCCC3)C1=O)C2(C)C (some centres undefined)
6. Nc1c(OCC(=O)O)ccc2cc(S(=O)(=O)O)ccc12

A:
1. 26.7 µM (inactive)
2. 56.6 µM (inactive)
3. 14.6 µM (inactive)
4. > 100 µM (inactive)
5. > 100 µM (inactive)
6. > 100 µM (inactive)

* * *

Test system: SK-MEL-2
Test: NCI tumour cell line growth inhibition, 48 h
Active and inactive are the calls of the source. No stated cut-off is given here; in the data, active = GI50 up to about 1.1 µM and inactive = higher.
Can you tell me GI50 for the items I'm about to list?

> print(dat)
                                   compound  measured.target               result
1  Oc1c(C2=NNC(c3ccc(Cl)cc3Cl)C2)ccc2ccccc12 (stereo not given)         SK-MEL-2   35.8 µM (inactive)
2  O=C1c2cc(Cl)ccc2-n2c(noc2=O)C2CSCN12 (stereo not given)         SK-MEL-2  > 100 µM (inactive)
3  COc1cc(/C=C2\C(=O)N(c3ccc(Cl)cc3)C(c3ccccc3)S2(=O)=O)cc(OC)c1OC (stereo not given)         SK-MEL-2   9.77 µM (inactive)
4  CC(C)C1(O)C(=O)N(c2c(F)c(F)c(F)c(F)c2F)C(=S)N1CCSc1ccccc1 (stereo not given)         SK-MEL-2   17.7 µM (inactive)

Q: Give measured GI50 for COc1ccc(/C(Cl)=C(\C=O)c2ccc(OC)c(OC)c2)cc1 (SK-MEL-2).
A: 18.5 µM (inactive)

* * *

Can you tell me GI50 for the items I'm about to list?
System: LOX IMVI
Test: NCI tumour cell line growth inhibition, 48 h
Calls of active or inactive are those of the source. Cut-off read from the data, not from the text of the source: active = GI50 up to about 1.1 µM and inactive = higher.

Past entries and their recorded results:
> print(dat)
                                   compound               result
1  CN/N=C(/CC(=O)c1sc(-n2nc(-c3ccccc3)cc2-c2ccccc2)nc1C)C(=O)Nc1ccc(Cl)c(Cl)c1   22.5 µM (inactive)
2  CCOC(=O)/C=C(\C(=O)OCC)n1ccc(=O)n(Cc2cnnn2CCCCOC(C)=O)c1=O   4.09 µM (inactive)
3  O=C(NNc1ccc([N+](=O)[O-])cc1)C1OC(CO)C(O)C1O (stereo not given)  > 100 µM (inactive)

Your task in this section: give GI50 for each listed record.
1. Cc1nc(N)nc2ccccc12
2. O=c1sc(Nc2ccc3ccccc3c2Cl)nc2ccccc12
3. COc1cc(OC)nc(-n2c(N)c(C(=O)O)c3ccc([N+](=O)[O-])cc3c2=O)n1
4. COC(=O)[C@]12C3=C(O)C(=O)C[C@H]1OC[C@H]2C=CC3
5. O=C(O)c1cc2c(cc1CC(Cc1ccc3c(c1)CCC3)C(=O)O)CCC2 (stereo not given)

A:
1. > 100 µM (inactive)
2. > 100 µM (inactive)
3. > 100 µM (inactive)
4. > 100 µM (inactive)
5. > 100 µM (inactive)

Your task in this section: give GI50 for each listed record.
1. COc1ccc(C2ON(c3cccc(C)n3)CC=C2C)cc1 (stereo not given)
2. S=C(N/N=C/c1ccccn1)N1CCCCCC1

A:
41.5 µM (inactive)
< 0.01 µM (active)

* * *

System: HOP-92
Test: NCI tumour cell line growth inhibition, 48 h
Active and inactive are the calls of the source. No stated cut-off is given here; in the data, active = GI50 up to about 1.1 µM and inactive = higher.
Can you tell me GI50 for the items I'm about to list?

> print(dat)
                                   compound  quantity.kind              result
1        COc1cccc(C(=O)C#Cc2cnc(OC)nc2OC)c1           GI50  2.09 µM (inactive)
2  O=C1/C(=C/c2ccc(Cl)cc2)N=C(c2ccccc2)N1c1nc2ccc(Sc3ccccc3)cc2[nH]1           GI50  45.9 µM (inactive)

Your task in this section: give GI50 for each listed record.
1. Cc1cc(C)c(S(=O)(=O)N(CCCCCCN)OCCCN)c(C)c1
2. CC(=O)C1C(=O)C(=O)N(c2ccc(Cl)cc2C)C1=O (centres undefined)

A:
15.7 µM (inactive)
> 100 µM (inactive)

* * *

Tested on: NCI-H23
Test: NCI tumour cell line growth inhibition, 48 h
The source made the active and inactive calls. Rule as the data show it: active = GI50 up to about 1.1 µM and inactive = higher.
Can you tell me GI50 for the items I'm about to list?

> print(dat)
                                   molecule  measured.target  quantity.kind               result
1                    O=C(CC1=NCCN1)c1ccccc1          NCI-H23           GI50  > 750 µM (inactive)
2  CC(=O)OC1CC2C(=O)CC1(C)C2(C)C (centres undefined)          NCI-H23           GI50  > 100 µM (inactive)
3                        NNC(=S)NCCNC(=S)NN          NCI-H23           GI50  > 100 µM (inactive)

# context switch: different molecule, same GI50
Q: Indicate its recorded GI50; the molecule in question is Cc1ccc(C2=NOC(=O)[C@@H]3CCCC[C@@H]23)cc1
A: > 100 µM (inactive)

* * *

Tested on: BT-549
Test: NCI tumour cell line growth inhibition, 48 h
The source made the active and inactive calls. Cut-off read from the data, not from the text of the source: active = GI50 up to about 1.1 µM and inactive = higher.
Respond using exactly one of the listed classes: y = active, n = inactive

Example entries and their recorded answers appear below.
> print(dat)
                                   molecule  group
1  Cc1ccc(C)n1-c1ccccc1C1C=Cn2c3c1c(=O)c(OC(C)C)c(OC(C)C)c-3n[nH]c2=O (stereo not given)      n
2  c1cn(C23C4C5C6C4C2C6C53)cn1 (stereo not given)      n
3  COc1c2c(cc3c1C(O)N1CC[C@]34[C@H]3O[C@H]3[C@H](OC)C[C@@H]14)OCO2 (stereo not given in full)      n

Q: # lookup: test call for O=C(O)c1ccccc1CC1Cc2ccc3c(c2C1=O)CCC3 (stereo not given)
A: n

Q: # lookup: test call for COc1cc2c(c(OC)c1OC)-c1ccc(OC)c(=O)cc1C(NC(=O)COc1ccccc1)CC2 (stereo not given)
A: y

Q: # lookup: test call for O=C(CCC(=O)OCC1OC(O)(CC2OC(CO)C(O)C(O)C2O)C(O)C1O)OCc1ccccc1 (stereo not given)
A: n

Q: # lookup: test call for CCOC(=O)C(=[N+]=[N-])C(=O)C[N+]12CCN(CC1)CC2
A: n

Q: # lookup: test call for CC12CCC([C@H](C(O)C3CCCCC3)C1=O)C2(C)C (stereo not given in full)
A: n

* * *

Test system: A498
Test: NCI tumour cell line growth inhibition, 48 h
Activity calls are given as the source filed them. Rule as the data show it: active = GI50 up to about 1.1 µM and inactive = higher.
Respond using exactly one of the listed classes: true = active, false = inactive

Q: # lookup: test call for COC(=O)c1cc2c3c(cc(N(C)C)c2[nH]1)N(C(=O)c1cc2cc(OC)c(OC)c(OC)c2[nH]1)CC3CCl (stereo unspecified)
A: true

Q: # lookup: test call for C=C1C(=O)OC2C1CC[C@H](C)C1(O)C(O)CC(=O)[C@@]21C (stereo partly specified)
A: false

Q: # lookup: test call for O=C1N/C(=N/N=C/C(O)C(O)C(O)C(O)CO)N/C1=C\c1cccs1 (stereo unspecified)
A: false

Q: # lookup: test call for Nc1ccc(-c2nc3cc(F)ccc3s2)cc1
A: false

Q: # lookup: test call for COC(=O)[C@@]12C(=O)C=CC(=O)[C@@H]1C1C(=CC2COC(C)=O)O[C@@H]2OC3(CCCCC3)O[C@H]12 (stereo partly specified)
A: false

Q: # lookup: test call for CCOC(=O)C(NC(=O)c1cccc(Cl)c1)(Nc1ccc(S(=O)(=O)Nc2cc(C)on2)cc1)C(F)(F)F (stereo unspecified)
A: false

Q: # lookup: test call for O=c1ccn(C2OC(COC3CCCCO3)C(OC3CCCCO3)C2OC2CCCCO2)c(=O)n1-c1ccccc1 (stereo unspecified)
A: false

Q: # lookup: test call for C/C(=N/NC(=O)c1ccccc1S(N)(=O)=O)C(CN1CCCCC1)C(C1=C(O)C2C=CC=CC2OC1=O)c1ccccc1 (stereo unspecified)
A: false

Q: # lookup: test call for O=C1C(Nc2ccccc2)=CC2=NCCc3n[nH]c1c32
A: false

Q: # lookup: test call for CCCCCCCCCCCC(=O)C1=C(O)CCC(O)C1=O (stereo unspecified)
A: false

Q: # lookup: test call for COC(CC1(/C=C/O[Si](C(C)C)(C(C)C)C(C)C)C(=O)N(COCC[Si](C)(C)C)c2ccccc21)OC (stereo unspecified)
A: false
